measuredOn: 5-HT2A receptor (Homo sapiens)
experimentalProtocol: Displacement of [3H]-Ketanserin from human 5-HT2A receptor expressed in CHO-K1 cells incubated for 1 hr by microbeta counting method
pKi: −log10 of the molar value.
propertyLabel: pKi

| compound | measuredOn | reportedResult |
| --- | --- | --- |
| CCCCC(Oc1cc(Cl)ccc1Cl)c1nc(N)nc(N2CCN(C)CC2)n1 (configuration not stated) | 5-HT2A receptor (Homo sapiens) | 6.37 |
| CN1CCN(c2nc(N)nc(CCCOc3cc(Cl)ccc3Cl)n2)CC1 | 5-HT2A receptor (Homo sapiens) | 5.84 |
| CC(Oc1cccc(Cl)c1Cl)c1nc(N)nc(N2CCN(C)CC2)n1 (configuration not stated) | 5-HT2A receptor (Homo sapiens) | 6.57 |
| CN1CCN(c2nc(N)nc(CCCOc3ccc(Cl)c(Cl)c3)n2)CC1 | 5-HT2A receptor (Homo sapiens) | 6.04 |
| CN1CCN(c2nc(N)nc(CCCOc3cccc(Cl)c3Cl)n2)CC1 | 5-HT2A receptor (Homo sapiens) | 6.19 |

[1] CCCCC(Oc1cc(Cl)cc(Cl)c1)c1nc(N)nc(N2CCN(C)CC2)n1 (configuration not stated)
[2] CC(Oc1ccccc1Cl)c1nc(N)nc(N2CCN(C)CC2)n1 (configuration not stated)
**Q:** Short answer wanted: higher pKi, 1 or 2 ? Reply with the label of the item you choose.
**A:** 1
